System: HCT-116
Assay: NCI tumour cell line growth inhibition, 48 h
Activity calls are given as the source filed them. No stated cut-off is given here; in the data, active = GI50 up to about 1.1 µM and inactive = higher.
# valid calls are yes for active, no for inactive; nothing else

For orientation, consider the following solved cases.
INSERT INTO assay_data (compound, classification) VALUES
  ('COC1C(=O)CCC2(CO2)C1(O)C1(C)OC1CC=C(C)C (stereo unspecified)', 'no'),
  ('O=C1C=C(C2=C(C3=CC(=O)c4ccccc4C3=O)C(=O)c3ccccc3C2=O)C(=O)c2ccccc21', 'no'),
  ('Cc1ccc2nc(NC(=O)C(=O)C(C#N)c3nc4ccccc4s3)sc2c1 (stereo unspecified)', 'no'),
  ('C=CCn1c2c(sc1=S)C(S)NC=N2 (stereo unspecified)', 'no'),
  ('O=C(NCO)NCOCn1c(=O)n(CO)c(=O)n(CO)c1=O', 'no'),
  ('CCOC(=O)N(C)C1(c2ccccc2)CCN(CCCC(=O)c2ccc(F)cc2)CC1', 'no'),
  ('CCOC(=O)CCC(=O)C1c2cccc(O)c2C(=O)c2c(O)cccc21', 'no'),
  ('CCSc1nnc(-c2ccccc2)nc1Cc1ccc(OC)cc1', 'no'),
  ('c1ccc2c(c1)N=c1cc3c(cc1N2)=NC12CCCCC1CC1=C(CCCC1)N32 (stereo unspecified)', 'no'),
  ('CC(=O)c1sc(Nc2nnc(-c3ccc(-c4nnc(Nc5nc(C)c(C(C)=O)s5)o4)cc3)o2)nc1C', 'no');

Query :: I'd appreciate the recorded outcome for O=C(CCCc1ccccn1)c1ccccc1 from this test.
Result :: no

Query :: Same read-out for CNc1nc(N)c(N=O)c(Nc2ccc(Br)cc2)n1 ?
Result :: no

----------
System: SNB-78
Assay: NCI tumour cell line growth inhibition, 48 h
The source made the active and inactive calls. No stated cut-off is given here; in the data, active = GI50 up to about 1.1 µM and inactive = higher.
MEASURED ENDPOINT: GI50

Solved entries:
INSERT INTO assay_data (molecule, data_value) VALUES
  ('CC1(C)Oc2ccccc2N2O[C@@H]3C(=O)N(c4ccccc4)C(=O)[C@@H]3C21c1ccccc1 (stereo partly specified)', '35.5 µM (inactive)'),
  ('Cc1ccc(C2C(Cl)C(=O)N2NC(=O)c2ccc(N)cc2)cc1 (stereo unspecified)', '5.46 µM (inactive)'),
  ('COc1ccc(/C(Cl)=C(\C=O)c2ccc(Cl)cc2)cc1', '6.85 µM (inactive)');

Query :: Given the molecule O=c1[nH]c(=O)n([C@H]2CCCO2)cc1F , what is its reported GI50?
Result :: > 1000 µM (inactive)

Query :: Same read-out for FC(F)(F)C1(Br)C(c2ccccc2)=C1c1ccccc1 ?
Result :: 25.8 µM (inactive)

Query :: Same read-out for [O-]/N=[N+](/[O-])C1CCCCC1=[N+]1CCOCC1 (stereo unspecified) ?
Result :: > 100 µM (inactive)

----------
Test system: ACHN
Experiment: NCI tumour cell line growth inhibition, 48 h
Activity calls are given as the source filed them. No stated cut-off is given here; in the data, active = GI50 up to about 1.1 µM and inactive = higher.
# valid calls are T (active), F (inactive); nothing else

For orientation, consider the following solved cases.
INSERT INTO assay_data (compound, experimental_target, classification) VALUES
  ('COc1cc(OCCN(C)C)c2[nH]c(C(=O)N3CC(CCl)c4ccc(N)cc43)cc2c1 (configuration not stated)', 'ACHN', 'T'),
  ('CCOc1cc(NC(C)=O)ccc1C(=O)NNS(=O)(=O)c1ccc(Cl)cc1Cl', 'ACHN', 'F'),
  ('c1ccc(CN2CCC3(CC2)SSC2(CCN(Cc4ccccc4)CC2)S3)cc1', 'ACHN', 'F'),
  ('CCN(CC)CCOC(NC(C)=O)(c1ccccc1)c1ccccc1', 'ACHN', 'F'),
  ('N#[N+][c-]1c(-c2ccccc2)n[nH]c1=O', 'ACHN', 'F'),
  ('O=C(CCCc1ccccn1)c1ccccc1', 'ACHN', 'F'),
  ('O=S(=O)(O)c1cc(S(=O)(=O)O)c2c(/N=N/c3ccc(/N=N/c4ccccc4)cc3)c(O)ccc2c1', 'ACHN', 'F'),
  ('NC1CC(Cl)c2c(Cl)sc(Cl)c21 (configuration not stated)', 'ACHN', 'F');

Query :: I'd appreciate the recorded outcome for NC1=Nc2ccccc2Sc2nncn21 from this test.
Result :: F

Query :: Same read-out for O=C(O)CC1(CC(=O)O)Nc2ccccc2SC1=O ?
Result :: F

Query :: Same read-out for O=[N+]([O-])c1cccc2nccc(NCCN3CCOCC3)c12 ?
Result :: F

Query :: Same read-out for Nc1nc(Cl)cc(NC2(CO)CCC2)n1 ?
Result :: F

Query :: Same read-out for COc1ccc2c(c1)CCc1c(CO)c(COC(=O)NC(C)C)n(C)c1-2 ?
Result :: F

Query :: Same read-out for CC1=CC(=O)C(C)(C2=NC(C)(C)CO2)c2ccccc21 (configuration not stated) ?
Result :: F

Query :: Same read-out for C[C@H]1[C@H](N2CCCC2)O[Si](C(C)(C)C)(C(C)(C)C)[C@@H]1C ?
Result :: F

Query :: Same read-out for O=C(/C=C/c1ccc(Cl)cc1)Oc1ccc(C=C2CCC/C(=C\c3ccc(OC(=O)/C=C/c4ccc(Cl)cc4)cc3)C2=O)cc1 ?
Result :: F

Query :: Same read-out for C/C1=C\CC[C@@]2(C)O[C@@H]2[C@H]2OC(=O)C(C)C2C[C@H]1O (some centres not stated) ?
Result :: F

Query :: Same read-out for COC(=O)C1=C(C)N2[C@H](C(=O)O)CS[C@@]2(C)[C@H](C(=O)OC)[C@H]1c1cccc([N+](=O)[O-])c1 ?
Result :: F

----------
Items are presented alongside their recorded GI50.
System: T47D
Assay: NCI tumour cell line growth inhibition, 48 h
The source made the active and inactive calls. No stated cut-off is given here; in the data, active = GI50 up to about 1.1 µM and inactive = higher.

INSERT INTO assay_data (molecule, experimental_target, data_value) VALUES
  ('O=S(=O)(O)c1cc(S(=O)(=O)O)c2c(/N=N/c3ccc(/N=N/c4ccccc4)cc3)c(O)ccc2c1', 'T47D', '> 100 µM (inactive)'),
  ('COC(=O)C(=O)C(C(=O)C(=O)Nc1ccc(Cl)c(Cl)c1)c1nc2ccc(C(=O)c3ccccc3)cc2nc1O (stereo not given)', 'T47D', '49 µM (inactive)'),
  ('O=C(CCCc1ccccn1)c1ccccc1', 'T47D', '> 100 µM (inactive)'),
  ('N=C(N)NS(=O)(=O)c1ccc(NC(=O)c2ccc3nc4ccccc4c(Nc4ccc(S(N)(=O)=O)cc4)c3c2)cc1', 'T47D', '> 100 µM (inactive)');

Query :: Given the molecule COc1c2c(nc3ccccc13)-c1cc(C(CC(=O)OC(C)(C)C)C(=O)OC(C)C)c(CO)c(=O)n1C2 (stereo not given) , what is its reported GI50?
Result :: 22.1 µM (inactive)

Query :: Same read-out for Cc1ccc(S(=O)(=O)N2CCSCCSCCN(S(=O)(=O)c3ccc(C)cc3)CCN(S(=O)(=O)c3ccc(C)cc3)CC2)cc1 ?
Result :: > 100 µM (inactive)

Query :: Same read-out for CC(C)=CCc1c2c(c(O)c3c(=O)c4c(oc13)-c1ccc(O)cc1OC4C=C(C)C)C=CC(C)(C)O2 (stereo not given) ?
Result :: 8.79 µM (inactive)

----------
Test system: BT-549
Test: NCI tumour cell line growth inhibition, 48 h
Where a name gives a salt, the structure may show the parent alone. Active and inactive are the calls of the source. Rule as the data show it: active = GI50 up to about 1.1 µM and inactive = higher.
Items are presented alongside their recorded GI50.

Solved entries:
INSERT INTO results (compound, data_value) VALUES
  ('O=C(NCCN(CCNC(=O)c1cccc(=O)n1O)CCNC(=O)c1cccc(=O)n1O)c1cccc(=O)n1O', '> 100 µM (inactive)'),
  ('NC1CC(=O)c2c(Cl)sc(Cl)c21 (stereo unspecified)', '3.76 µM (inactive)'),
  ('NC1CC(Cl)c2c(Cl)sc(Cl)c21 (stereo unspecified)', '> 100 µM (inactive)'),
  ('COc1ccc(-n2c3c(c4cc(O)ccc42)C(=O)c2ccccc2C3=O)cc1', '11.2 µM (inactive)'),
  ('CO/N=C1/C(n2[nH]c(=O)n(-c3ccccc3)c2=O)C2C=CC1n1c(=O)n(-c3ccccc3)c(=O)n12 (stereo unspecified)', '> 100 µM (inactive)');

Query :: Given the compound C/C(=N\Nc1nc2ccccc2[nH]1)c1ccc2ccccc2n1 , what is its reported GI50?
Result :: > 100 µM (inactive)

Query :: Same read-out for O=C1C=C(C2=C(C3=CC(=O)c4ccccc4C3=O)C(=O)c3ccccc3C2=O)C(=O)c2ccccc21 ?
Result :: 14.6 µM (inactive)

Query :: Same read-out for NC(=S)NC/C=C/Cl ?
Result :: > 100 µM (inactive)

Query :: Same read-out for CC(C)[Si]1(C(C)C)OCC2OC3(CO)C(Oc4nc(=O)ccn43)C2O[Si](C(C)C)(C(C)C)O1 (stereo unspecified) ?
Result :: 11.6 µM (inactive)

Query :: Same read-out for CNNCc1ccc(C(=O)NC(C)C)cc1 [PROCARBAZINE HYDROCHLORIDE] ?
Result :: > 500 µM (inactive)

Reference source for all entries: ChEMBL document CHEMBL1201862
